Each recorded value in this set is attributed to paper PMC11480844.

For each record, write down the corresponding ratio to parent.
B1: H2-Kb / E9 (parent)
chain 1: QQKVQQSPESLTVSEGAMASLNCTFSDRSSDNFRWYRQHSGKGLEVLVSIFSDGEKEEGSFTAHLNRASLHVFLHIREPQPSDSALYLCAVSRSSGSWQLIFGSGTQLTVMP
chain 2: NSGVVQSPRYIIKGKGERSILKCIPISGHLSVAWYQQTQGQELKFFIQHYDKMERDKGNLPSRFSVQQFDDYHSEMNMSALELEDSAVYFCASSRDSNNQAPLFGEGTRLSVL
chain 3: not shown
chain 4: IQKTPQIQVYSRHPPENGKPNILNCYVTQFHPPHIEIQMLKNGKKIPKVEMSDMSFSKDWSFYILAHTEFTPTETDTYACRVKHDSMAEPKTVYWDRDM
chain 5: SIINFEKL

variants of: B1; test: % of reporter cells activated (NFAT-GFP), raw; details: with E9; scale: % of reporter cells activated; also: test concentration or dose not given here
Numbers only.

Example entries begin here.
{"columns": ["Variant String", "ratio to parent"],
 "data": [
  ["chain 5 K7T", 2.01],
  ["chain 5 S1F", 2.34],
  ["chain 5 F5Q", 1.32]
]}

Batch request: ratio to parent per item, same order as input.
1. chain 5 L8R
2. chain 5 I2N
3. chain 5 F5T
4. chain 5 K7Q
5. chain 5 N4R
6. chain 5 I3E

1.53
1.77
1.45
2.28
1.59
1.86

Batch request: ratio to parent per item, same order as input.
1. chain 5 S1D
2. chain 5 F5K
3. chain 5 F5H
4. chain 5 N4S

1: 1.29; 2: 2.54; 3: 1.89; 4: 1.89

Batch request: ratio to parent per item, same order as input.
1. chain 5 I3S
2. chain 5 E6P
3. chain 5 N4C
4. chain 5 N4M
5. chain 5 N4H

1: 2.13; 2: 2.1; 3: 2.34; 4: 1.71; 5: 2.63
